Relative to UNC0638 Average reference
STUDY TARGET: T1, G9a and GLP (Homo sapiens, UniProt Q96KQ7+Q9H9B1)
T1 sequence (Q96KQ7 2-1210 limits assumed): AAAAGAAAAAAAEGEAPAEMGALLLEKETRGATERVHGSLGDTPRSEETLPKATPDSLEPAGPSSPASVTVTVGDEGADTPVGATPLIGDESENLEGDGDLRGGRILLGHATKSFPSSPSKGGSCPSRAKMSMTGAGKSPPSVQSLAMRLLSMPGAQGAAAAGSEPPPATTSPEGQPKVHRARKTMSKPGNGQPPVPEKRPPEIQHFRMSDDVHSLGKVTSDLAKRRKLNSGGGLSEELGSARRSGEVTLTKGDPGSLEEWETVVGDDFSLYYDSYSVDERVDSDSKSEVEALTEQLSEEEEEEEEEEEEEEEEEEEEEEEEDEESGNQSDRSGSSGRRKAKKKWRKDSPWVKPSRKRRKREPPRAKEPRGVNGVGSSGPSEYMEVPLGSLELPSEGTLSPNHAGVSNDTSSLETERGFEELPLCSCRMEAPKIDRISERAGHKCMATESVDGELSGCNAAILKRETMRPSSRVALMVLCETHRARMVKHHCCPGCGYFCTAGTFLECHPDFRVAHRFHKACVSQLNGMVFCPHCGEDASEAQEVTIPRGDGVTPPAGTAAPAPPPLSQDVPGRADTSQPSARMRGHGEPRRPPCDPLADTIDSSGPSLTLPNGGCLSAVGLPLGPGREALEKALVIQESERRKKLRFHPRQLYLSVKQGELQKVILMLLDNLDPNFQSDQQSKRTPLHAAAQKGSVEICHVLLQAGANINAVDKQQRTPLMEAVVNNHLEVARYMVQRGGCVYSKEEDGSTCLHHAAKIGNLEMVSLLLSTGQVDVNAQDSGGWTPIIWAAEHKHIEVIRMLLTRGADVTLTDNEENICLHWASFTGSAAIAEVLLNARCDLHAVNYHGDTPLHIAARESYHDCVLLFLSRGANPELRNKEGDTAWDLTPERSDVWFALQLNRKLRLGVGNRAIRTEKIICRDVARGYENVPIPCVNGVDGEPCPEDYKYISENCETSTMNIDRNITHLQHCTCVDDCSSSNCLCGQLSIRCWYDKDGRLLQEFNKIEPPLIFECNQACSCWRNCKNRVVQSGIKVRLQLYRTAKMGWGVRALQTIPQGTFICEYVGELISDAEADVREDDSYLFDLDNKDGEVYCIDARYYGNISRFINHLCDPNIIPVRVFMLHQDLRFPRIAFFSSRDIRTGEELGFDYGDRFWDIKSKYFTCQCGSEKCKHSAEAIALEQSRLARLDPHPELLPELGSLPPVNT
T1 sequence (Q9H9B1 2-1298 limits assumed): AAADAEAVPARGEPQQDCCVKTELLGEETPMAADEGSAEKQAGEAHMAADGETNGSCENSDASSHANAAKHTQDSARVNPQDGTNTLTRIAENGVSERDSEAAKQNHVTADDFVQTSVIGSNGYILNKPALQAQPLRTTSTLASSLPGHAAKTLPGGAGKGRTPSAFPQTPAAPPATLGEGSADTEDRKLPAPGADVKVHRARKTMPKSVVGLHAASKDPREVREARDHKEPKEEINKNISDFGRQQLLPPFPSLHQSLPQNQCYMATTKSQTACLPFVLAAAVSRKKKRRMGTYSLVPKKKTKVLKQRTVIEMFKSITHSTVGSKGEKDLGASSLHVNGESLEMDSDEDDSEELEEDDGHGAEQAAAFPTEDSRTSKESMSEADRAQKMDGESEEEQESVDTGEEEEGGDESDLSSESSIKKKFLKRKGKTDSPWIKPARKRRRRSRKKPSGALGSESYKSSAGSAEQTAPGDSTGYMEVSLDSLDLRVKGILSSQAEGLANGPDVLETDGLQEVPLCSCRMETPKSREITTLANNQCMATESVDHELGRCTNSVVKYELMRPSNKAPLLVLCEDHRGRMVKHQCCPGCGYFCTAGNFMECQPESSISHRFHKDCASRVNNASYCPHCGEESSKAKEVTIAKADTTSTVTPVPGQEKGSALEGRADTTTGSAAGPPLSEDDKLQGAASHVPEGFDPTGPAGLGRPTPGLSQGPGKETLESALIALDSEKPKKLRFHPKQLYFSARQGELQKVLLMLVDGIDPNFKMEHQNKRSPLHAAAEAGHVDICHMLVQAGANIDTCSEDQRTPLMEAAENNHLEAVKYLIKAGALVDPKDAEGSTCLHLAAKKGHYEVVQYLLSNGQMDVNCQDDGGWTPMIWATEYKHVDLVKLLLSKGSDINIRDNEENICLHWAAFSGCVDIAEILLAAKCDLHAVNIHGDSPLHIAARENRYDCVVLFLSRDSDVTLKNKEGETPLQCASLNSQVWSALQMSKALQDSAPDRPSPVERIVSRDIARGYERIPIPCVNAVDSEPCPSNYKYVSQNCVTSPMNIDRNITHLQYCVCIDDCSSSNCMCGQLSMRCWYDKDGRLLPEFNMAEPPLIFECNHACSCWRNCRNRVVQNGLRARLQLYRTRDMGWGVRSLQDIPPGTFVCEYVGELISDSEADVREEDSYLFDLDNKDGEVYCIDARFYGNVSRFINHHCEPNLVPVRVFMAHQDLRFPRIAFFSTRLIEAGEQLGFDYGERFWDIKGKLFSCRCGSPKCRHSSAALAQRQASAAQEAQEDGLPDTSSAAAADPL
TEST DESCRIPTION: Triple SILAC pull-down after UNC0638 treatment of 293T cells, DMSO/UNC0638 ratio of protein captured by 3×MBT;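 note: mass spectrometry (Q-Exactive) SILAC quantitation, DMSO/UNC0638 ratio computed after subtracting 3×MBTD355N mutant pull-down background, only proteins with at least twofold 3×MBT over mutant signal considered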
Format: cell-based
Design: cells were treated for 24 hours with UNC0638 at 2.5 μM or DMSO vehicle control; endogenous in cells; host or cells: HEK 293T
SETUP CONDITIONS: average of UNC Light and UNC Heavy experiments
Your answer should be a plain number; it is taken to be in log base 2.

Past entries and their recorded results:
MOLECULE	Relative to UNC0638 Average [log base 2]
PRDX2 (protein, UniProt P32119 2-198, looked up) Peroxiredoxin-2: ASGNARIGKPAPDFKATAVVDGAFKEVKLSDYKGKYVVLFFYPLDFTFVCPTEIIAFSNRAEDFRKLGCEVLGVSVDSQFTHLAWINTPRKEGGLGPLNIPLLADVTRRLSEDYGVLKTDEGIAYRGLFIIDGKGVLRQITVNDLPVGRSVDEALRLVQAFQYTDEHGEVCPAGWKPGSDTIKPNVDDSKEYFSKHN	1.19
CACYBP (protein, UniProt Q9HB71 2-228, looked up) Calcyclin-binding protein: ASEELQKDLEEVKVLLEKATRKRVRDALTAEKSKIETEIKNKMQQKSQKKAELLDNEKPAAVVAPITTGYTVKISNYGWDQSDKFVKIYITLTGVHQVPTENVQVHFTERSFDLLVKNLNGKSYSMIVNNLLKPISVEGSSKKVKTDTVLILCRKKVENTRWDYLTQVEKECKEKEKPSYDTETDPSEGLMNVLKKIYEDGDDDMKRTINKAWVESREKQAKGDTEF	0.25

Switching to the query record.
Recorded Relative to UNC0638 Average of SRP14 (protein, UniProt P37108 2-136, looked up) Signal recognition particle …: VLLESEQFLTELTRLFQKCRTSGSVYITLKKYDGRTKPIPKKGTVEGFEPADNKCLLRATDGKKKISTVVSSKEVNKFQMAYSNLLRANMDGLKKRDKKNKTKKTKAAAAAAAAAPAAAATAPTTAATTAATAAQ , please.
0.19

The reported measurements were obtained from patent US20140274782A1.
